assay_info: Half life in monkey at 0.5 mg/kg, iv
Format: ADME, organism-based, Macaca mulatta
Design: dose 0.5 mg/kg, route intravenous
protocol_conditions: rhesus monkey, in vivo
recorded_metric: half-life (h)

[[record]]
given_smiles = "NC(=O)c1cnc(N[C@H](C2CC2)C(F)(F)F)c2c1[nH]c1cc(-c3cnc(N)nc3)ccc12"
recorded_metric = "half-life"
reported = 7.3


* * *

assay_info: Bioavailability in rat at 1 mg/kg, iv
Assay type: ADME, organism-based
protocol_conditions: in vivo
recorded_metric: bioavailability

[[record]]
given_smiles = "Cn1cc(-c2ccc3c(c2)[nH]c2c(C(N)=O)cnc(N[C@H](C4CC4)C(F)(F)F)c23)cn1"
reported = "65%"


* * *

assay_info: Plasma clearance in rat at 2 mg/kg, iv and 4 mg/kg, po
Format: ADME, organism-based
recorded_metric: clearance

[[record]]
given_smiles = "O=c1[nH]ccc2c3[nH]c(-c4ccccc4Cl)nc3c3ccc(F)cc3c12"
recorded_metric = "clearance"
reported = "5.4 mL/min/kg"


* * *

assay_info: Volume of distribution at steady state in rat at 1 mg/kg, iv
Format: ADME, organism-based
Set-up: dose 1 mg/kg, route intravenous
protocol_conditions: in vivo, read-out: Vdss
recorded_metric: Vd (L/kg)

[[record]]
given_smiles = "NC(=O)c1cnc(N[C@H](C2CC2)C(F)(F)F)c2c1[nH]c1cc(-c3cnc(N)nc3)ccc12"
reported = 2.5


* * *

assay_info: Volume of distribution at steady state in monkey at 0.5 mg/kg, iv
Format: ADME, organism-based, Macaca mulatta
Design: dose 0.5 mg/kg, route intravenous
protocol_conditions: rhesus monkey, in vivo, read-out: Vdss
recorded_metric: Vd (L/kg)

[[record]]
given_smiles = "NC(=O)c1cnc(N[C@H](C2CC2)C(F)(F)F)c2c1[nH]c1cc(-c3cnc(N)nc3)ccc12"
reported = 4.7


* * *

assay_info: Oral bioavailability in monkey at 1 mg/kg
Format: ADME, organism-based, Macaca mulatta
protocol_conditions: rhesus monkey, in vivo
recorded_metric: bioavailability (%)

[[record]]
given_smiles = "NC(=O)c1cnc(N[C@H](C2CC2)C(F)(F)F)c2c1[nH]c1cc(-c3cnc(N)nc3)ccc12"
reported = 66


* * *

Form field: IC50 (one value per entry).
system_name: UniProtKB O60674
assay_info: Inhibition of JAK2
recorded_metric: IC50 (nM)

[[record]]
given_smiles = "O=c1[nH]ccc2c1c1cc(F)ccc1n2-c1ccccc1"
display_unit = "nM"
reported = 1100

[[record]]
given_smiles = "O=c1[nH]ccc2c3[nH]c(-c4ccccc4Cl)nc3c3ccc(F)cc3c12"
display_unit = "nM"
reported = 3

[[record]]
given_smiles = "CCNc1ncc(C(N)=O)c2[nH]c3ccc(F)cc3c12"
display_unit = "nM"
reported = 230


* * *

system_name: Voltage-dependent L-type calcium channel subunit alpha-1C (Rattus norvegicus)
Sequence (P22002 whole entry): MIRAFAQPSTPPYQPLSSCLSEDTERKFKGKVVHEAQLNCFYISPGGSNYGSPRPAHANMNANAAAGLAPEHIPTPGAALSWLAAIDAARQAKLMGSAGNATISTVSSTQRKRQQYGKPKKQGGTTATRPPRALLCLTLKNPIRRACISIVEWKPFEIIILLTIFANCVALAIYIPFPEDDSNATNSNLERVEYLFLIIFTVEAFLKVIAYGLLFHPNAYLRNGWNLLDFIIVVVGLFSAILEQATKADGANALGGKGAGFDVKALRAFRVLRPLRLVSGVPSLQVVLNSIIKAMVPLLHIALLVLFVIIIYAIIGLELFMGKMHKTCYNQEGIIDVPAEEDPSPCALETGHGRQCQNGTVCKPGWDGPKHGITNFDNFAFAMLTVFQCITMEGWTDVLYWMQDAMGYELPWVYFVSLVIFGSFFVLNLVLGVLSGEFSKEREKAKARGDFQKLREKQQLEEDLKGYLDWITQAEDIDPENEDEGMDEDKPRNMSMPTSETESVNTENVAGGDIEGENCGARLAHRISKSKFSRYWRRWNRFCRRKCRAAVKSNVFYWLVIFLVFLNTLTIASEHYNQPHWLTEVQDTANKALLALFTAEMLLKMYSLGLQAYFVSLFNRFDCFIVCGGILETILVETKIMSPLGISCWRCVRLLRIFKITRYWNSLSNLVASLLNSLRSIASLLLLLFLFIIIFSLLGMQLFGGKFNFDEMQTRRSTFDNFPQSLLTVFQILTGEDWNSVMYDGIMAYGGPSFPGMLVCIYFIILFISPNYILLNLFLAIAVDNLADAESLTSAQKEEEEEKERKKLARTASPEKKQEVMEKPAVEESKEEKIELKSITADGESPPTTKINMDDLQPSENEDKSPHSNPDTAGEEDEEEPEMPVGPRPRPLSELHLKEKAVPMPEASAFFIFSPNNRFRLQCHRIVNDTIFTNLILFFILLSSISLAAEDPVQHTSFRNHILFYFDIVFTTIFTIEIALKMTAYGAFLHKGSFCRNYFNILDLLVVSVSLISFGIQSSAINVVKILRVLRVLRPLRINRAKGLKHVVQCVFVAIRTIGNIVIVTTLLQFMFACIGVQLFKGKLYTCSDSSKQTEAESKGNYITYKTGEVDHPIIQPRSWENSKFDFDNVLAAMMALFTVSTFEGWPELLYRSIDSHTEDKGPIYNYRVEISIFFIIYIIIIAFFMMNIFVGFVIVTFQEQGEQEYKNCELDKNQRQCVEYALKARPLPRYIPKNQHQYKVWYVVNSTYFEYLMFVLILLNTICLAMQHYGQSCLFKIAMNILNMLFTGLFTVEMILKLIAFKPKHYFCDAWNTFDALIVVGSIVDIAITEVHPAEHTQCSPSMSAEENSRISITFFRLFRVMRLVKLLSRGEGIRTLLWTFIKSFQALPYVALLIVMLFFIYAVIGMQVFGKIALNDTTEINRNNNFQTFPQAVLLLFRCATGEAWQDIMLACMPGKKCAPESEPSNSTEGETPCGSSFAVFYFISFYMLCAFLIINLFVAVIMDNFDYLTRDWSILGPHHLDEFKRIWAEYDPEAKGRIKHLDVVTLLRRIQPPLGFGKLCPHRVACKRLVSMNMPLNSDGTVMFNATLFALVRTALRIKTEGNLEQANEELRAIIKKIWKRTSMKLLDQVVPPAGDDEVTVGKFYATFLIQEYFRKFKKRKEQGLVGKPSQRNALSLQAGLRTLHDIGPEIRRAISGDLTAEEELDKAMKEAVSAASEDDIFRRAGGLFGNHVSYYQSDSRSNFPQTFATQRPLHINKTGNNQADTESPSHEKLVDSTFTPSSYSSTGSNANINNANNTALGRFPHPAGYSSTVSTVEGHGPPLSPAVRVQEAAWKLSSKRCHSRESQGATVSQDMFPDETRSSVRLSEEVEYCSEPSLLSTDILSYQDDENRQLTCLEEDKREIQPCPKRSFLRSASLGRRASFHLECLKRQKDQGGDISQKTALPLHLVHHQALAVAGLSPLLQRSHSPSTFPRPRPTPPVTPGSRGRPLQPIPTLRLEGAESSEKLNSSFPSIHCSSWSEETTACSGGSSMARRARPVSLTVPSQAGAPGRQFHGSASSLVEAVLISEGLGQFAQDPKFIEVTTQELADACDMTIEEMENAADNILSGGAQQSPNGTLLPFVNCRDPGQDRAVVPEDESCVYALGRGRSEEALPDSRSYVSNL
assay_info: Inhibition of rat CaV1.2
pIC50: −log10 of the molar value.
recorded_metric: pIC50

[[record]]
given_smiles = "NC(=O)c1cnc(N[C@H](C2CC2)C(F)(F)F)c2c1[nH]c1cc(-c3cnc(N)nc3)ccc12"
reported = "< 4.52"


* * *

system_name: Tyrosine-protein kinase JAK2 (Homo sapiens)
Sequence (O60674 whole entry): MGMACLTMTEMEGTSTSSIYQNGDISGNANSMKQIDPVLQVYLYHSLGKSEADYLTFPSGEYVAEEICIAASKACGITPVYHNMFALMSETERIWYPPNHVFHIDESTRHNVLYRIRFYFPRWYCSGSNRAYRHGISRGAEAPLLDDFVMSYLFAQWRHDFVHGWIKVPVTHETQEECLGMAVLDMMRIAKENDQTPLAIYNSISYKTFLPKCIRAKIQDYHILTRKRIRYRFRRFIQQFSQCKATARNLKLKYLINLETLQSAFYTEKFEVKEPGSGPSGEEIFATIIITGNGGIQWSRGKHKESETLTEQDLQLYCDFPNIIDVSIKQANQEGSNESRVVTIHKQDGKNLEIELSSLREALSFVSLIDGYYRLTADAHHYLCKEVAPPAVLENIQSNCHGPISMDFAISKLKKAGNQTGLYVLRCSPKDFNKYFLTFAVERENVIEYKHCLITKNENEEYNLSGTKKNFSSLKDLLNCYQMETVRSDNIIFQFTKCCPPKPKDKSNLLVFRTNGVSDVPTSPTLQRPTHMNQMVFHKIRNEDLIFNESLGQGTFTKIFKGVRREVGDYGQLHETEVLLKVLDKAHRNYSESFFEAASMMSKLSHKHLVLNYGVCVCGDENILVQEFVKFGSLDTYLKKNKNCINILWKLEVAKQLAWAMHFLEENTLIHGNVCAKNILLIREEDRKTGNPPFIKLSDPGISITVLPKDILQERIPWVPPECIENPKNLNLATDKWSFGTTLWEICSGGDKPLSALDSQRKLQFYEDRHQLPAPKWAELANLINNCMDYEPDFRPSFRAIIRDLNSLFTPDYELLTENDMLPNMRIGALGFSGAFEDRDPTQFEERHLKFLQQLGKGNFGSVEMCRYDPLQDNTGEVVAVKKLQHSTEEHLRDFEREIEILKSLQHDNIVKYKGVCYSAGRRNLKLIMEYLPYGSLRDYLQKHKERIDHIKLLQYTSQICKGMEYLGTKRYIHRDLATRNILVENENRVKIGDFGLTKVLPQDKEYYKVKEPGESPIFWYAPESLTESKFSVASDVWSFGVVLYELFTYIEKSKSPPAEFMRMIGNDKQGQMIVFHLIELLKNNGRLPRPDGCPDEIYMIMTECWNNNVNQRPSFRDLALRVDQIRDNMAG
assay_info: Inhibition of JAK2-mediated STAT5 phosphorylation in human HEL 92.1.7 irf1-bla cells
Type: cell-based
pIC50: −log10 of the molar value.
recorded_metric: pIC50

[[record]]
compound = "Cn1cc(-c2ccc3c(c2)[nH]c2c(C(N)=O)cnc(N[C@H](C4CCC4)C(F)(F)F)c23)cn1"
system_name = "Tyrosine-protein kinase JAK2 (Homo sapiens)"
reported = 6.46

[[record]]
compound = "C[C@@H](Nc1ncc(C(N)=O)c2[nH]c3cc(-c4cnn(C)c4)ccc3c12)C1CC1"
system_name = "Tyrosine-protein kinase JAK2 (Homo sapiens)"
reported = 7.10

[[record]]
compound = "NC(=O)c1cnc(NC(C2CC2)C2CC2)c2c1[nH]c1cc(-c3cccnn3)ccc12"
system_name = "Tyrosine-protein kinase JAK2 (Homo sapiens)"
reported = 7.55

[[record]]
compound = "Cn1cc(-c2ccc3c(c2)[nH]c2c(C(N)=O)cnc(NC(C4CC4)C4CC4)c23)cn1"
system_name = "Tyrosine-protein kinase JAK2 (Homo sapiens)"
reported = 6.89

[[record]]
compound = "NC(=O)c1cnc(NC(C2CC2)C2CC2)c2c1[nH]c1cc(-c3cn[nH]c3)ccc12"
system_name = "Tyrosine-protein kinase JAK2 (Homo sapiens)"
reported = 7.40

[[record]]
compound = "NC(=O)c1cnc(N[C@H](C2CC2)C(F)(F)F)c2c1[nH]c1cc(-c3ccc(N4CCS(=O)(=O)CC4)nn3)ccc12"
system_name = "Tyrosine-protein kinase JAK2 (Homo sapiens)"
reported = 6.92

[[record]]
compound = "NC(=O)c1cnc(N[C@H](C2CC2)C(F)(F)F)c2c1[nH]c1cc(-c3cnc(N4CCOCC4)nc3)ccc12"
system_name = "Tyrosine-protein kinase JAK2 (Homo sapiens)"
reported = 6.28

[[record]]
compound = "C[C@H](Nc1ncc(C(N)=O)c2[nH]c3cc(-c4cnn(C)c4)ccc3c12)C1CC1"
system_name = "Tyrosine-protein kinase JAK2 (Homo sapiens)"
reported = 7.85

[[record]]
compound = "NC(=O)c1cnc(NC(C2CC2)C2CC2)c2c1[nH]c1cc(-c3cnc(N)nc3)ccc12"
system_name = "Tyrosine-protein kinase JAK2 (Homo sapiens)"
reported = 7.54

[[record]]
compound = "Cn1cc(-c2ccc3c(c2)[nH]c2c(C(N)=O)cnc(N[C@@H](C4CC4)C(F)(F)F)c23)cn1"
system_name = "Tyrosine-protein kinase JAK2 (Homo sapiens)"
reported = 6.28

[[record]]
compound = "C[C@H](Nc1ncc(C(N)=O)c2[nH]c3cc(-c4cnn(C)c4)ccc3c12)C(C)(C)C"
system_name = "Tyrosine-protein kinase JAK2 (Homo sapiens)"
reported = 6.43

[[record]]
compound = "Cn1cc(-c2ccc3c(c2)[nH]c2c(C(N)=O)cnc(N[C@H](C4CC4)C(F)(F)F)c23)cn1"
system_name = "Tyrosine-protein kinase JAK2 (Homo sapiens)"
reported = 7.39

[[record]]
compound = "NC(=O)c1cnc(NC(C2CC2)C2CC2)c2c1[nH]c1cc(-c3cnc(N)cn3)ccc12"
system_name = "Tyrosine-protein kinase JAK2 (Homo sapiens)"
reported = 7.00

[[record]]
compound = "CC(C)C(Nc1ncc(C(N)=O)c2[nH]c3cc(-c4cnn(C)c4)ccc3c12)C1CC1 (stereo not drawn)"
system_name = "Tyrosine-protein kinase JAK2 (Homo sapiens)"
reported = 7.02

[[record]]
compound = "NC(=O)c1cnc(N[C@H](C2CC2)C(F)(F)F)c2c1[nH]c1cc(-c3ccc(N)nc3)ccc12"
system_name = "Tyrosine-protein kinase JAK2 (Homo sapiens)"
reported = 7.21

[[record]]
compound = "NC(=O)c1cnc(N[C@H](C2CC2)C(F)(F)F)c2c1[nH]c1cc(-c3cn[nH]c3)ccc12"
system_name = "Tyrosine-protein kinase JAK2 (Homo sapiens)"
reported = 7.49

[[record]]
compound = "CCC(Nc1ncc(C(N)=O)c2[nH]c3cc(-c4cnn(C)c4)ccc3c12)C1CC1 (stereo not drawn)"
system_name = "Tyrosine-protein kinase JAK2 (Homo sapiens)"
reported = 7.35

[[record]]
compound = "NC(=O)c1cnc(N[C@H](C2CC2)C(F)(F)F)c2c1[nH]c1cc(-c3cnc(N)nc3)ccc12"
system_name = "Tyrosine-protein kinase JAK2 (Homo sapiens)"
reported = 7.60

